Reported values of kel (elimination rate constant) for individual entries
- Experiment description: representative pharmacokinetic parameters
- Type: in vivo
- Test parameters: Dose: Fosfomycin 3000 mg, trimethoprim 720 mg
Measurement kind: kel (elimination rate constant) (h⁻¹)

Compound: C[C@@H]1O[C@@H]1P(=O)(O)O [Fosfomycin, cis-1,2-epoxypropyl phosphonic acid]
Recorded measurement: 0.122
//
Compound: COc1cc(Cc2cnc(N)nc2N)cc(OC)c1OC
Recorded measurement: 0.08

----------
- Experiment description: representative pharmacokinetic parameters
- Format: in vivo
- Test parameters: in vivo, 3000 mg; read-out: T ½ (converted)
Measurement kind: half-life (h)

Compound: C[C@@H]1O[C@@H]1P(=O)(O)O [Fosfomycin, cis-1,2-epoxypropyl phosphonic acid]
U: h
Recorded measurement: 5.7

# credit: patent US11925653B2
